Listing of recorded normalized growth by entry.
Assay: chemical genetic growth profiling, strain panel (AID 1159580);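 also: tested at 20 µM; growth read once vehicle control cultures reached saturation at 30 °C; 1 = growth at the plate median or of vehicle wells; lower values mean less growth of the strain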
Settings: S. cerevisiae strains, growth OD, strain wild type, stronger effect = lower value
Among all 5,500 compounds or so, about 2,000 (36%) were called active. Inconclusive results (about 18%) are left out. The list shows a part of the results. Where a SMILES comes first, the peptide text is derived from it. [ ]: non-standard residue; d: D form. Orn = NCCC[CH](N)C(=O)O

molecule	normalized growth
CCNc1nc(Cl)nc(NCC)n1	0.997
CCC1C(=O)OCC1Cc1cncn1C (stereo unspecified)	1.01
CSc1nc(N)nc(N2CCCCC2)n1	1.01
COc1c2ccoc2cc2oc(C)cc(=O)c12	0.965
O=C(O)c1cc([N+](=O)[O-])ccc1NCCCc1ccccc1	0.963
CC(C)CC1NC(=O)C(CCCN)NC(=O)C(C(C)C)NC(=O)C2CCCN2C(=O)C(Cc2ccccc2)NC(=O)C(CC(C)C)NC(=O)C(CCCN)NC(=O)C(C(C)C)NC(=O)C2CCCN2C(=O)C(Cc2ccccc2)NC1=O (stereo unspecified) (cyclo(FPV[Orn]LFPV[Orn]L); configuration not given here)	1.04
NC(=S)c1ccc(Oc2ccc(Cl)cc2)nc1	0.0499
COC(=O)c1cc([N+](=O)[O-])ccc1N1CCOCC1	1.01
CC1(C)C(=O)[C@@H]2C[C@@]3(O)C4=CC(=O)O[C@@H](c5ccoc5)[C@]4(C)CCC3[C@@](C)(C2=O)[C@H]1CC(=O)O (stereo partly specified)	1.01
CC(=O)OCC1=C(C(=O)O)N2C(=O)[C@@H](NC(=O)CCCC(N)C(=O)O)C2SC1 (stereo partly specified)	1.02
COc1ccc2c(=O)ccoc2c1	1.02

---

Experiment: chemical genetic growth profiling, strain panel (AID 1159580);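 also: tested at 20 µM; growth read once vehicle control cultures reached saturation at 30 °C; 1 = growth at the plate median or of vehicle wells; lower values mean less growth of the strain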
Conditions: S. cerevisiae deletion strains, growth OD, locus YML032C, strain rad52, stronger effect = lower value
The campaign covered roughly 5,500 compounds. About 2,000 (36%) were called active. Not shown: some 18% with an inconclusive outcome. The list shows a part of the results. *1 amine or outer side, *2 acyl side, *3 side chain or, on linkers, in order; H or OH if unused. Where a SMILES comes first, the peptide text is derived from it. Bridges are numbered along the chain shown (N, C = ends). [ ]: non-standard residue; d: D form. The star is where a group is joined. ξ: configuration not given here. ΔAla(E,3-NHCONH2) = NC(=O)N/C=C(/N)C(=O)O; X2 = NC1=NCCC(C(N[*:1])C(=O)[*:2])N1; ξβ3hOrn = NCCCC(N)CC(=O)*; Dap = NC[CH](N)C(=O)O

compound	normalized growth
OCCN1CCN(CCCN2c3ccccc3Sc3ccc(C(F)(F)F)cc32)CC1	0.926
CC(=O)O[C@H]1CC[C@]2(C)C3CC[C@@]4(C)C(CC5O[C@@]6(CCC(C)CO6)[C@@H](C)C54)C3CC[C@H]2C1 (stereo partly specified)	0.977
COc1cc2cc3c4cc(OC)c(OC)cc4cc[n+]3c(C)c2cc1OC	0.925
COc1cc(NS(=O)(=O)c2ccc(N)cc2)ncn1	0.991
CC(=O)O[C@@H]1CC[C@]2(C)C3CC[C@]4(C)C(=O)CCC4C3CC[C@H]2C1 (stereo partly specified)	0.885
NC1C[C@H]1c1ccccc1 (stereo partly specified)	0.985
CN1CCN(CCC=C2c3ccccc3Sc3ccc(S(=O)(=O)N(C)C)cc32)CC1	0.896
CC1(C)C(=O)[C@@H]2O[C@@H]2[C@@]2(C)C1CC(=O)[C@]1(C)C2CC[C@@]2(C)[C@H](c3ccoc3)OC(=O)[C@H]3O[C@]321 (stereo partly specified)	0.992
O=c1oc2c(O)c(O)cc3c(=O)oc4c(O)c(O)cc1c4c23	0.66
Cc1onc(-c2ccccc2)c1C(=O)NC1C(=O)N2[C@@H]1SC(C)(C)[C@@H]2C(=O)O (stereo partly specified)	1.03
C=C(C)[C@@H]1CC[C@]2(CO)CC[C@]3(C)[C@H](CCC4[C@@]5(C)CC[C@H](O)C(C)(C)C5CC[C@]43C)C12 (stereo partly specified)	1.02
Cc1onc(-c2ccccc2Cl)c1C(=O)N[C@@H]1C(=O)N2[C@@H]1SC(C)(C)[C@@H]2C(=O)O	1.01
Cc1onc(-c2c(Cl)cccc2Cl)c1C(=O)N[C@@H]1C(=O)N2[C@@H]1SC(C)(C)[C@@H]2C(=O)O	0.987
NC1CC1c1ccccc1 (stereo unspecified)	0.975
O=C1c2ccccc2C(=O)C1c1ccccc1	1.01
O=c1c(O)c(-c2ccc(O)c(O)c2)oc2cc(O)ccc12	0.962
COc1c2occc2c(OC)c2c(=O)cc(C)oc12	1
c1ccc([C@H]2CN3CCSC3=N2)cc1	1.02
CC(=O)OCC(=O)[C@@]12OC3(CCCC3)O[C@@H]1CC1C3CCC4=CC(=O)C=C[C@]4(C)[C@@]3(F)[C@@H](O)C[C@@]12C (stereo partly specified)	0.968
CC(=O)OCC(=O)[C@@]1(O)CCC2C3CC[C@@H]4C[C@H](OC(C)=O)CC[C@]4(C)C3C(=O)C[C@@]21C (stereo partly specified)	1
CC(=O)OC1CCC2(C)C3CC(=O)C4(C)C(CC5OC6(CCC(C)CO6)[C@@H](C)C54)C3CC[C@H]2C1 (stereo partly specified)	0.996
CC(NCCC(c1ccccc1)c1ccccc1)c1ccccc1 (stereo unspecified)	0.937
COc1cc(O)cc(OC)c1OC	1.01
NCCCC(N)CC(=O)NCC1NC(=O)C(CO)NC(=O)C(N)CNC(=O)C(C2CCN=C(N)N2)NC(=O)/C(=C\NC(N)=O)NC1=O (stereo not drawn) (H-[Dap]S[Dap](ξβ3hOrn)[ΔAla(E,3-NHCONH2)][X2]; lactam 1-C; configuration not given here)	1.02
CO[C@H]1C[C@H](O[C@H]2[C@H](C)[C@@H](OC3O[C@H](C)C[C@H](N(C)C)[C@H]3OC(C)=O)[C@@H](C)C[C@]3(CO3)C(=O)[C@H](C)[C@@H](OC(C)=O)[C@@H](C)[C@@H](C)OC(=O)[C@@H]2C)O[C@@H](C)[C@@H]1OC(C)=O (stereo partly specified)	0.991
COc1cccc(OC)c1C(=O)N[C@@H]1C(=O)N2[C@@H]1SC(C)(C)[C@@H]2C(=O)O	0.991
O=C(O)[C@H](O)[C@@](O)(Cc1ccc(O)cc1)C(=O)O	1.01
O=C(O)c1cc(=O)c2c(Cl)cc(Cl)cc2[nH]1	1.01
O=C(O)c1cc([N+](=O)[O-])ccc1NCCCc1ccccc1	0.968
O=C(OC[C@H]1O[C@H](OC(=O)c2cc(O)c(O)c(OC(=O)c3cc(O)c(O)c(O)c3)c2)[C@H](OC(=O)c2cc(O)c(O)c(OC(=O)c3cc(O)c(O)c(O)c3)c2)[C@@H](OC(=O)c2cc(O)c(O)c(OC(=O)c3cc(O)c(O)c(O)c3)c2)[C@@H]1OC(=O)c1cc(O)c(O)c(OC(=O)c2cc(O)c(O)c(O)c2)c1)c1cc(O)c(O)c(OC(=O)c2cc(O)c(O)c(O)c2)c1	0.103
COc1ccc(C2C(=O)c3ccccc3C2=O)cc1	1.01
O=c1[nH]cnc2c1ncn2C1O[C@H](CO)[C@@H](O)[C@H]1O (stereo partly specified)	1.01
CN(C)CCc1c[nH]c2ccc(CS(=O)(=O)N3CCCC3)cc12	0.99
COc1c2ccoc2cc2oc(C)cc(=O)c12	0.912
COc1cc(/C=C/C=O)cc(OC)c1OC	1.03
COc1ccc2c(=O)ccoc2c1	0.993
